Target: Mannose-6-phosphate isomerase (Homo sapiens)
Test: inhibitors of human PMI, primary screen, biochemical, fluorescence intensity, coupled assay (AID 1209);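 also: plate controls were DMSO vehicle for no effect and wells lacking substrate for full effect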
Conditions: purified PMI enzyme, at 20 µM, hits give high values
The whole screen tested about 190,000 compounds, of which about 810 (0.43%) were called active. Many of the other results were omitted from the sample, so actives are more common in it than they were.
Cut-off 50% on inhibition, inclusive. At or above means 1 (yes); below means 0 (no).

Consider the following illustrative entries.
# MOLECULE, DISCRETE_LABEL
measured = [
    ("CCCC(c1c(C)n(C)n(-c2ccccc2)c1=O)c1c(C)n(C)n(-c2ccccc2)c1=O", "0 (no)"),
    ("Cc1c(N=C2C=CC(=O)c3ccccc32)c(=O)n(-c2ccccc2)n1C", "1 (yes)"),
    ("Cc1c(N=C2C=C(Br)C(=O)C(Br)=C2)c(=O)n(-c2ccccc2)n1C", "1 (yes)"),
    ("Cc1c(N=c2scc(-c3ccccc3)n2C)c(=O)n(-c2ccccc2)n1C", "0 (no)"),
    ("Cc1c(N=C2C(=O)Nc3ccccc32)c(=O)n(-c2ccccc2)n1C", "0 (no)"),
    ("CCC(c1c(C)n(C)n(-c2ccccc2)c1=O)c1c(C)n(C)n(-c2ccccc2)c1=O", "0 (no)"),
    ("CCC(C)C1=CC(=Nc2c(C)n(C)n(-c3ccccc3)c2=O)C=C(C(C)CC)C1=O (stereo not given)", "1 (yes)"),
    ("CC1=CC(=Nc2c(C)n(C)n(-c3ccccc3)c2=O)C=C(C)C1=O", "1 (yes)"),
]

Is inhibition for `Cc1c(N=Nc2ccc(O)cc2)c(=O)n(-c2ccccc2)n1C` at or above 50%?
0 (no)

Is inhibition for `CC(=O)/C(N=Nc1c(C)n(C)n(-c2ccccc2)c1=O)=C(\C)O` at or above 50%?
0 (no)

====

Entries annotated with measured inhibition
Target: Mannose-6-phosphate isomerase (Homo sapiens) (UniProt P34949)
Sequence (P34949 whole entry, looked up): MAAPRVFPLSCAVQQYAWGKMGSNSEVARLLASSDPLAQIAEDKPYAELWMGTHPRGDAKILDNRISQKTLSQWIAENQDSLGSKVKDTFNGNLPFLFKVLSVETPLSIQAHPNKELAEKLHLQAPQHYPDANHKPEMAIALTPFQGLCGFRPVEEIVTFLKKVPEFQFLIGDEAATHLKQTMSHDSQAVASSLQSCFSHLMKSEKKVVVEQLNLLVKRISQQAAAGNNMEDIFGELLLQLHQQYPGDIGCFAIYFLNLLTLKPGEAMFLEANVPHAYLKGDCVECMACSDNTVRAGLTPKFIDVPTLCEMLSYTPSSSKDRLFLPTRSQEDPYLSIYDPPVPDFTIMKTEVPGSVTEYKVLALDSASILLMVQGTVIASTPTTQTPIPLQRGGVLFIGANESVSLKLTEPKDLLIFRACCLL
Assay: inhibitors of human PMI, primary screen, biochemical, fluorescence intensity, coupled assay (AID 1209);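 also: plate controls were DMSO vehicle for no effect and wells lacking substrate for full effect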
Conditions: purified PMI enzyme, at 20 µM, hits give high values
Among all 190,000 compounds or so, about 810 (0.43%) were called active. Shown is part of a subset that was picked to be rich in actives.

Solved entries (count: 5):
# COMPOUND, ASSAY_VALUE
records = [
    ("NC1=Nc2cccc3cccc1c23", "12.8% (inactive)"),
    ("Cc1ccc2c(nc3s/c(=C/c4cccs4)c(=O)n32)c1C", "-7.9% (inactive)"),
    ("O=C(CCN1CCCC1Cc1ccccc1)c1ccc2c(c1)OCCO2 (stereo unspecified)", "50.8% (active)"),
    ("O=C(CCN1CCCCC1)c1ccc2c(c1)OCCO2", "36.1% (inactive)"),
    ("CCN1CCc2c(C#N)c(NCc3ccccc3)nc(NCCO)c2C1", "52.6% (active)"),
]

// query inhibition value for entry `CN1CCc2c(C#N)c(N3CCCCC3)nc(NCc3ccccc3)c2C1`
26.6% (inactive)

// query inhibition value for entry `Cc1cc(C)c2nc3s/c(=C/c4ccc5c(c4)n(C)c(=O)n5C)c(=O)n3c2c1`
37.9% (inactive)

// query inhibition value for entry `Oc1ccc(/C=N/Nc2cc(N3CCCC3)nc(N3CCCC3)n2)cc1`
32% (inactive)

// query inhibition value for entry `O=c1nc(Nc2ccc(OCc3ccccc3)cc2)sc2ncccc12`
3% (inactive)

// query inhibition value for entry `NS(=O)(=O)c1ccc(NC(=S)NCc2ccc(Cl)cc2)cc1`
58.1% (active)

// query inhibition value for entry `N#Cc1c(NCCN)nc(NCc2ccccc2)c2c1CCN(Cc1ccccc1)C2`
17.8% (inactive)

// query inhibition value for entry `Cc1cc(C)c2nc3s/c(=C/c4ccccc4)c(=O)n3c2c1`
57.6% (active)

// query inhibition value for entry `Cc1cc(C)nc(Nc2n[nH]c(-c3ccccc3C)n2)n1`
3.4% (inactive)

These entries and their values trace back to PubChem BioAssay AID1209.
